Reported values of EC50 for individual entries
biological target: T1, cynomolgus monkey TIGIT ECD-mFc (extracellular domain of cynomolgus monkey TIGIT and mouse IgG2a Fc fragment) (cynomolgus monkey); experiment: ELISA
T1 construct: entry includes the signal peptide, limits not readable here
T1 sequence (chain, as listed by the source limits assumed): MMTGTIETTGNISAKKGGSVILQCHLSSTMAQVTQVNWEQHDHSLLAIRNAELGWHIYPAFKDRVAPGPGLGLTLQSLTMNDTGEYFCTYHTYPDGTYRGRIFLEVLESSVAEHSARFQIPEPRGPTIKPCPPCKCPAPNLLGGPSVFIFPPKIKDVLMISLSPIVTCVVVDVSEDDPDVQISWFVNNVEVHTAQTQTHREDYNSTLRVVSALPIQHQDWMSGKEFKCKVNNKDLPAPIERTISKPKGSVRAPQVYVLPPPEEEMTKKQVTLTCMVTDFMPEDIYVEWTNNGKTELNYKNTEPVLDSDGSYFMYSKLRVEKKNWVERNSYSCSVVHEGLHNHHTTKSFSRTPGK

>  <binder>
TIGIT-CHI-002 (antibody, V domains shown, human-mouse chimeric antibody) VH: EVQLQESGPGLAKPSQTLSLACSVTGYSITSDSWNWIRKFPGNKLEYMGYISYSGNTYYNPSLKSRISITRDTSKNQFYLQLNSVTTEDTATYYCARLDFSNYGGAVDYWGQGTSVTVSS VL: DIVMTQSHTFMSTSVGDRVSITCKASQNVRTAVAWYQQKPGQSPKLMIYSASYRYTGVPDRFTGSGSGTDFTFTISSVQAEDLAVYYCQQYYTTPWTFGGGAKLEIQ

>  <EC50 [nM]>
0.0165

$$$$
>  <binder>
TIGIT-CHI-005 (antibody, V domains shown, human-mouse chimeric antibody) VH: QVQLQQSGAELVRPGTSVKVSCKASGYAFTNYLIEWVKQRPGQGLEWIGVINPGSGGTNYKEKFKGKATLTADKSSSTAYMQLSSLTSEDSAVYFCARGEYFFFDYWGQGTTLTVSS VL: DIVMTQSHKFMSTSVGDRVSITCKASQHVSNGVAWYQHKPGQSPKLLIYSASYRYTGVPDRFTGTGSGTDFTFTISSVQAEDLAVYYCQQHYNTPHTFGGGTKLEIK

>  <EC50 [nM]>
0.017

$$$$
>  <binder>
TIGIT-CHI-070 (antibody, V domains shown, human-mouse chimeric antibody) VH: QVQLQQPGTELVKPGASVKLSCRASGYTFTNYYMHWVKQRPGRGLEWIGRIDPDSGGSKYNEKFKSKATLTVDKLSSTAYMQLSSLTSEDSAVYYCAREGHYGFYSDYWGQGTTLTVSS VL: DIQMTQSPASLSASVGETVTITCRVSENIYSYLAWYQQKQGKSPQLLVYNAKTLAEGVPSRFSGSGSGTQFSLKINSLQPEDFGNYYCQHHYGNPLTFGAGTKLDLK

>  <EC50 [nM]>
0.0163

$$$$
>  <binder>
TIGIT-CHI-006 (antibody, V domains shown, human-mouse chimeric antibody) VH: EVQLQESGPGLAKPSQTPSLTCSVTGYSMTSDYWNWIRKFPGNKLEYMGYISYSGRTYYNPSLKSRISITRDTSKNQFYLQLNSVTTEDTATYYCARGDYSNYGGAMYDWGQGTSVTVSS VL: DIVMTQSHKFMSTSVGDRVSITCRASQGVSTTIAWYQQKPGQSPKLLIYSASYRYTGVPDRFTGSGSGTDFTFTISGVQAEDLAVYYCQQYYSSPFTFGGGTKLEIK

>  <EC50 [nM]>
0.0389

$$$$
